Taken from patent US20250326771A1.

target-entity: cIAP2-BIR2 (Homo sapiens (Human))
Sequence (Q13489 158-242): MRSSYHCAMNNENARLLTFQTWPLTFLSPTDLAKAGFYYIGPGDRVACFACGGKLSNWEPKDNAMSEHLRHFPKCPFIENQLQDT
experimental-details: BIR binding assay (FRET competition), cIAP2 BIR2
pIC50: −log10 of the molar value.
measured-attribute: pIC50

- compound: "C[C@@H]1CN(CC(=O)N2CC(C)(C)c3[nH]c(=O)c(Cc4ccc(F)cc4)cc32)[C@@H](CN2CCO[C@H](COc3cc(C#N)cc(OC[C@@H]4CN(C[C@H]5CN[C@H](C)CN5CC(=O)N5CC(C)(C)c6[nH]c(=O)c(Cc7ccc(F)cc7)cc65)CCO4)c3)C2)CN1 [Example 76]"
  pIC50: "5.50 to 6.00"

**Q:** Fill blank: measured pIC50 of the compound C[C@@H]1CN(CC(=O)N2CC(C)(C)c3[nH]c(=O)c(Cc4ccc(F)cc4)cc32)[C@@H](CN2CCC(CN(C)C(=O)Cc3cccc(C(=O)N(C)CC4CCN(C[C@H]5CN[C@H](C)CN5CC(=O)N5CC(C)(C)c6[nH]c(=O)c(Cc7ccc(F)cc7)cc65)CC4)c3)CC2)CN1 [Example 98] is ____.
**A:** 4.29 to 5.00
